- measurement-protocol: Plasma and brain concentrations, brain:plasma ratio in rats 2 hr after single PO 1 mg/kg (Example 5)
- Type: in vivo
- condition-description: rat, brain; Sprague-Dawley rats, 2 hr after a single PO dose of 1 mg/kg
reported-property: Kp at 2 h

Query block: Requested field: Kp at 2 h. Item: Cc1cc(Nc2cc(N)ncn2)c(=O)n2c1C(=O)NC21CCC2(CC2)CC1
Result block: 0.083

----------
- measurement-protocol: PK study in male Sprague Dawley rats, IV 1 mg/kg and PO 10 mg/kg (Example 4)
- Format: in vivo
- condition-description: male, Sprague-Dawley, rat, plasma, iv, 1 mg/kg, male SD rats, 1 mg/kg IV, individual animals; read-out: Clast
reported-property: concentration at 24 h (ng/mL)
Express the result in ng/mL but write the number alone.

Query block: Any idea what concentration at 24 h was measured for Cc1cc(Nc2cc(N)ncn2)c(=O)n2c1C(=O)NC21CCC2(CC2)CC1 [4ET-03-053] ?
Result block: 411

----------
- measurement-protocol: PK study in male Sprague-Dawley rats dosed once per day for five days, PO 1 mg/kg, 0.5% HPMC (Example 6)
- Type: in vivo
- condition-description: male, Sprague-Dawley, rat, in vivo, po, 1 mg/kg, Sprague-Dawley rats, day 5 of daily PO 1 mg/kg, 0.5% HPMC suspension; mean (n = 3); read-out: Clast
reported-property: concentration at 24 h (ng/mL)
All answers are understood in ng/mL, so give the number only.

Query block: Value lookup for concentration at 24 h; key = Cc1cc(Nc2cc(N)ncn2)c(=O)n2c1C(=O)NC21CCC2(CC2)CC1 [4ET-03-053]
Result block: 278

----------
- measurement-protocol: PK study in male Sprague Dawley rats, IV 1 mg/kg and PO 10 mg/kg (Example 4)
- Assay type: in vivo
- condition-description: male, Sprague Dawley, rat, in vivo, iv, 1 mg/kg, t1/2
reported-property: half-life (h)
Numbers only; they are read as h.

Query block: I am curious: what half-life value has been reported for Cc1cc(Nc2cc(N)ncn2)c(=O)n2c1C(=O)NC21CCC2(CC2)CC1 [4ET-03-053] ?
Result block: 6.36

----------
- measurement-protocol: Plasma and brain concentrations, brain:plasma ratio in rats 2 hr after single PO 1 mg/kg (Example 5)
- Format: in vivo
- condition-description: male, Sprague-Dawley, rat, plasma, po, 1 mg/kg, rats, plasma, 2 hr after single PO 1 mg/kg; mean; read-out: Plasma Conc., Mean
reported-property: concentration at 2 hr

Query block: Consider the compound Cc1cc(Nc2cc(N)ncn2)c(=O)n2c1C(=O)NC21CCC2(CC2)CC1 [4ET-03-053] and give its measured concentration at 2 hr.
Result block: 566 ng/mL

----------
- measurement-protocol: PK study in male Sprague-Dawley rats, IV 0.5 mg/kg and PO 1 mg/kg in 10% DMA/PG (Example 5)
- Assay type: in vivo
- condition-description: male, Sprague-Dawley, rat, in vivo, iv, 0.5 mg/kg
reported-property: C0 (ng/mL)
Could you give me the number in ng/mL? Just the number is fine.

Query block: Record request: C0 value, item Cc1cc(Nc2cc(N)ncn2)c(=O)n2c1C(=O)NC21CCC2(CC2)CC1 [4ET-03-053]
Result block: 1240

----------
- measurement-protocol: PK study in male Sprague-Dawley rats dosed once per day for five days, PO 25 mg/kg, 0.5% HPMC (Example 8)
- Assay type: in vivo
- condition-description: male, Sprague-Dawley, rat, in vivo, po, 25 mg/kg, single PO 25 mg/kg dose, 0.5% HPMC suspension, mean (n = 3), read-out: Clast
reported-property: concentration at 24 h (ng/mL)
Note: unit ng/mL is implicit; provide only the numeric part.

Query block: For the molecule shown here, Cc1cc(Nc2cc(N)ncn2)c(=O)n2c1C(=O)NC21CCC2(CC2)CC1 , give the reported concentration at 24 h.
Result block: 2890

----------
- measurement-protocol: PK study in male Sprague-Dawley rats, IV 0.5 mg/kg and PO 1 mg/kg in 10% DMA/PG (Example 5)
- Format: in vivo
- condition-description: male, Sprague-Dawley, rat, in vivo, po, 1 mg/kg, last measurable concentration
reported-property: concentration at 24 hr (ng/mL)
Numbers only here, please. The scale is ng/mL.

Query block: Quick one: concentration at 24 hr for Cc1cc(Nc2cc(N)ncn2)c(=O)n2c1C(=O)NC21CCC2(CC2)CC1 [4ET-03-053] ?
Result block: 74.6

----------
- measurement-protocol: PK study in male Sprague-Dawley rats dosed once per day for five days, PO 10 mg/kg, 0.5% HPMC (Example 7)
- Type: in vivo
- condition-description: male, Sprague-Dawley, rat, in vivo, po, 10 mg/kg, Sprague-Dawley rats, day five of daily PO 10 mg/kg, 0.5% HPMC suspension; mean (n = 3); read-out: t1/2 (converted)
reported-property: half-life
Be sure to follow the number with its unit.

Query block: Value lookup for half-life; key = Cc1cc(Nc2cc(N)ncn2)c(=O)n2c1C(=O)NC21CCC2(CC2)CC1 [4ET-03-053]
Result block: 6.82 h

----------
- measurement-protocol: Plasma and brain concentrations, brain:plasma ratio in rats 2 hr after single PO 1 mg/kg (Example 5)
- Assay type: in vivo
- condition-description: male, Sprague-Dawley, rat, brain homogenate, po, 1 mg/kg, rats, brain homogenate, 2 hr after single PO 1 mg/kg; mean; read-out: Tissue Homogenate Conc., Mean
reported-property: concentration at 2 hr
Record the result as a number with its unit.

Query block: Give the measured concentration at 2 hr of Cc1cc(Nc2cc(N)ncn2)c(=O)n2c1C(=O)NC21CCC2(CC2)CC1 .
Result block: 11.8 ng/mL

----------
- measurement-protocol: PK study in male Sprague Dawley rats, IV 1 mg/kg and PO 10 mg/kg (Example 4)
- Assay type: in vivo
- condition-description: male, Sprague Dawley, rat, plasma, po, 10 mg/kg, rats, 10 mg/kg PO, 10% DMA/PG, at 24 h; read-out: last measurable concentration
reported-property: concentration at 24 h (ng/mL)
Just the number please, in ng/mL, no unit attached.

Query block: Given the compound Cc1cc(Nc2cc(N)ncn2)c(=O)n2c1C(=O)NC21CCC2(CC2)CC1 , what is its reported concentration at 24 h?
Result block: 2620

----------
- measurement-protocol: PK study in male Sprague-Dawley rats, IV 0.5 mg/kg and PO 1 mg/kg in 10% DMA/PG (Example 5)
- Format: in vivo
- condition-description: male, Sprague-Dawley, rat, in vivo, po, 1 mg/kg, terminal half-life (t1/2)
reported-property: half-life

Query block: Need half-life, item Cc1cc(Nc2cc(N)ncn2)c(=O)n2c1C(=O)NC21CCC2(CC2)CC1 [4ET-03-053]
Result block: 9.23 h

----------
- measurement-protocol: PK study in male Sprague-Dawley rats dosed once per day for five days, PO 1 mg/kg, 0.5% HPMC (Example 6)
- Format: in vivo
- condition-description: male, Sprague-Dawley, rat, in vivo, po, 1 mg/kg, Sprague-Dawley rats, day 5 of daily PO 1 mg/kg, 0.5% HPMC suspension; individual animals; read-out: AUCinf
reported-property: AUC(0-inf) (ng·h/mL)
# unit: ng·h/mL | format: bare number

Query block: I would be grateful if you could share the reported AUC(0-inf) for Cc1cc(Nc2cc(N)ncn2)c(=O)n2c1C(=O)NC21CCC2(CC2)CC1 .
Result block: 49800

----------
- tested-target: recombinant full length human kinase MNK2 (Homo sapiens, UniProt Q9HBH9)
- Construct: the recombinant full length human kinase MNK2; made in house; host or cells: insect cells
- Sequence (Q9HBH9 whole entry): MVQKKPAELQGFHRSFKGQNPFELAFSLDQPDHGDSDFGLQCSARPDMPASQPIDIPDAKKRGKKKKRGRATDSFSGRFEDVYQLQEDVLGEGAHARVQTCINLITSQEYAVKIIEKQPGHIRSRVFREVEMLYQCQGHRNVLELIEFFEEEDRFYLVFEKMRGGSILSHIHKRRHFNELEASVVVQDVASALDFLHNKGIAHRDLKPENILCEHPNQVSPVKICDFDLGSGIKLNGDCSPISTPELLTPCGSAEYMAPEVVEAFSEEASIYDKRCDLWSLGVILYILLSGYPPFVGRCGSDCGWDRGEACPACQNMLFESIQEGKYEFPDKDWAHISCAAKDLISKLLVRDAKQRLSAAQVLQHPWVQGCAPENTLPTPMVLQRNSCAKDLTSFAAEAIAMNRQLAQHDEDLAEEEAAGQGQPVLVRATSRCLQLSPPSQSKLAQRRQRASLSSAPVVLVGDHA
- measurement-protocol: MNK2 radiometric kinase activity assay
- Format: biochemical
- condition-description: radiometric activity assay; read-out: MNK2
Here, each record is paired with measured IC50 data.
Answer as a quantity: numeral, then unit.

Query block: Given Cc1cc(Nc2cc(NC(=O)C3CC4(CNC4)C3)ncn2)c(=O)n2c1C(=O)NC21CCC2(CC2)CC1 [4ET-03-057] , state its recorded IC50.
Result block: 3.4 nM

Query block: Now the same for CCOC(=O)C1CC12CCC1(CC2)NC(=O)c2c(C)cc(Nc3cc(NC(=O)C4CC4)ncn3)c(=O)n21 (stereo not drawn) [4ET-03-045]
Result block: 12.1 nM

Query block: Now this one: Cc1cc(Nc2cc(NC(=O)C3CC3)ncn2)c(=O)n2c1C(=O)NC21CC2(CCC2)C1 [4ET-03-043]
Result block: 1.7 nM

----------
- measurement-protocol: PK study in male Sprague-Dawley rats dosed once per day for five days, PO 1 mg/kg, 0.5% HPMC (Example 6)
- Format: in vivo
- condition-description: male, Sprague-Dawley, rat, in vivo, po, 1 mg/kg, male Sprague-Dawley rats, single (first) PO 1 mg/kg dose, 0.5% HPMC suspension; mean (n = 3)
reported-property: MRT inf (h)
Reply numerically in h, unit not repeated.

Query block: Returns the measured MRT inf for the input molecule. Input: Cc1cc(Nc2cc(N)ncn2)c(=O)n2c1C(=O)NC21CCC2(CC2)CC1
Result block: 8.13
